Sourced from the supplement of paper PMC9170038

- System: MS2 coat protein
- measurement_notes: apparent KD of MS2 coat protein, switch OFF state (with FMN for OFF switches, without FMN for ON switches); designed switch direction (-1 OFF switch, 1 ON switch): -1; higher = weaker reporter binding
- stated_conditions: FMN input: 0 or 200 uM; Eterna round: R93 (includes R88 designs)
Kindly return MET if reported apparent KD of MS2 coat protein is no lower than 70 nM; return NOT MET if it is lower.

residue_sequence | discrete_label
AGAAAGUGAGGAUAUACAUGAGGAUCACCCAUGUAGAACGAGAGUUAUAAAAAUGGAAGUAGAAGGCGCAAAAG [water's exclusion 3 2nd] | NOT MET
AAAAAACAUGAGGAUCACCCAUGUAAGGAUAUGCCUAAAAAAAAAAAAAAAAAAAAUGGCAGAAGGUGCAAAAA [excalibur15] | NOT MET
AAAAAACAUGAGGAUCACCCAUGUAAGGAUAUCUAAAAUAAAAGAAAAAUAAAGAAAAGGAGAAGGUACAUGAA [JL wbt mod 21] | NOT MET
AAAAAGUGAGGAUAUGUCAAAAGUCACAAAAGUGACAAAAGACAGAAGGCACAUGAGGAUCACCCAUGUGAGGG [Mod of Eli - Late G + early G segment 4] | MET
AUGAGAGCAGGAUAUGCAGGUGAGCCGGAAGAAAGAAGAAGACAUGAGGAUCACCCAUGUAGAAGGGCUAGCCC [Madiesxe] | NOT MET
AAACGUUGAGGAUAUACGAAAAAGGGUAGGUCAAAUAAAACACAUGAGGAUCACCCAUGUAGAAGGCAACGAAA | NOT MET
GAAGUACGAGGAUAUACAUAGAUACAGAUACAUGUAGACGUACAUGAGGAUCACCCAUGUAGAAGGCGUACAAG [Mat - Same state - Mayanna Mod - D117] | MET
AGAAUACAUGAGGAUCACCCAUGUGAGGAUAUGCAGAUAAAAAUAAAAUAAAAUAAAUGCAGAAGGCACGAAAG [EX 1 May 21] | MET
AAGAAACAUGAGGAUCACCCAUGUCAGGAUAUCCAAGAAAGAAAGAAAGAAAGAAGAAGGAGAAGGGACAAAGG [Lucius Antonius Pedo] | NOT MET
AACAGUACAGGAUAUACAUGAGGAUCACCCAUGUGAAAAUAAAGUGGCGUACCACGAAGUAGAAGGGUACUGGA [Ruby 58] | MET
AGCAUGUGAGGAUAUGCGGACUCCAAUAAAUCUGGAGUCCAGUAGAAGGCACAUGAGGAUCACCCAUGUGAUAA [Soenaesma] | MET
AAAAGGUCAGGAUAUACAAAAAAAAAAAAAAAAAAAAAAAAGUAGAAGGGACAUGAGGAUCACCCAUGUGAAAA [Exclusion 4 - Omei 2] | NOT MET

====

- System: MS2 coat protein
- measurement_notes: apparent KD of MS2 coat protein; designed switch direction (-1 OFF switch, 1 ON switch): 1; higher = weaker reporter binding
- stated_conditions: Eterna round: R98; input ligand: none
Listing of recorded apparent KD of MS2 coat protein by entry.
metric_name: apparent KD of MS2 coat protein (nM)

residue_sequence | number
GCAAAUGGGCGAGGAUAUGGGACGGGCCUAAACAGGGCACAUGAGGAUCACCCAUGUCACACGACCCAGAAGGCGCUAAGAACG [Bemave] | 399
GGAUCGCUUGGAGGAUAUCCAACUAUCCUAGUUGGAGAAGGCCAAGCUACAGAGCUAAGCUUGGAAGUCACUUCGGAUCCACAC [pwkr ssNG1 F9.4.4] | 21.7
CGAGACACUUGAGGAUAUGCUCAGGAAUACUGAGCAGAAGGCAGGGAAACCUGAGGAUCACCCAGGUAACUGGAAAGUCUCGAA [Same State NG1 - A3C, U17G Submission 5A] | 29.2

====

- Test system: MS2 coat protein
- measurement_notes: apparent KD of MS2 coat protein, switch OFF state (with FMN for OFF switches, without FMN for ON switches); designed switch direction (-1 OFF switch, 1 ON switch): -1; higher = weaker reporter binding
- stated_conditions: FMN input: 0 or 200 uM; Eterna round: R93 (includes R88 designs)
Listing of recorded apparent KD of MS2 coat protein by entry.

residue_sequence | apparent KD of MS2 coat protein, nM
CUCAUGUGAGGAUAUCAGUAGUAAAAAAAUAAAAUUACUACUGAGAAGGCACAUGAGGAUCACCCAUGUGUCUU [EX4 331: Super Stable 31] | 27.2
AAACGUUGAGGAUAUACAAAAGGGUAUAAAUCAAAAAAAACACAUGAGGAUCACCCAUGUAGAAGGCAACGAAA | 65.6
AAAGUGUAAGGAUAUCUGAAAGGACACGAAAGUGACAAAGAAGAGAAGGUACAUGAGGAUCACCCAUGUAAAAA [milkweed 21] | 18.1
AUAAAGUCAGGAUAUGUAAAAAUAACGAAAGUUAUAAAUAAACAGAAGGGACAUGAGGAUCACCCAUGUAAAAU [Meechl MS2 Ex4] | 41.2
AAGAAGGCAGGAUAUACAUGAAAGAAAGAAAAGAAAAGAAAACAUGAGGAUCACCCAUGUAGAAGGGCCAAGAA [EteRNA is fun!] | 109

====

- System: MS2 coat protein
- measurement_notes: apparent KD of MS2 coat protein; designed switch direction (-1 OFF switch, 1 ON switch): -1; higher = weaker reporter binding
- stated_conditions: input ligand: microRNA oligo, concentration not stated
Assign a class from recorded apparent KD of MS2 coat protein; defined classes: low bracket: < 0.02 µM; middle bracket: ≥ 0.02 µM and < 0.04 µM; high bracket: ≥ 0.04 µM

residue_sequence | discrete_label
GUGUAGUGAGGAUAUACAUGAGGAUCACCCAUGUGAAUAAGAUAGAAUAAGAUAAAGUGUAGAAGGUAUAGUGU [Excluse me!!! 17 - Jieux - Exclusion 3] (Eterna round: R96, puzzle: Exclusion 3) | high bracket
UGUUGUUACGUAGGAUAUCCACCAACAGGUGGAAGGAUAUGUACGCAGAAGGUUCGCCAACAGGCGGAGAAGGACGUGUUAACA [pwkr exNG2 2xF7 2xFMN.28] (Eterna round: R96, puzzle: Exclusion NG 2) | high bracket
UUGUUGUAUGUAGGAUAUGCGUAUUAUUAUUAUGCAGAAGGACAUGAGGAUCACCCAUGUGUAUUAUUAUUAUAUAUUAUAUAU [Title] (Eterna round: R96, puzzle: Exclusion NG 1) | middle bracket
CCGUUCCGUGUAGGAUAUUGGCCUUCCUCGGGCCGAGAAGGACAUGAGGAUCACCCAUGUAUGCUAUUAUCGCGCGUGGCGCCC [Design 98] (Eterna round: R96, puzzle: Exclusion NG 1) | middle bracket
GGUGAGCUACUAGGAUAUCUAGGCUAUUUACCUAGAGAAGGAGUCGCCUUCCCUCGCGUAGAUACAUGAGGAUCACCCAUGUAU [Eternabot solution 50] (Eterna round: R96, puzzle: Exclusion NG 1) | low bracket
GGUCAGAUGGUAGGAUAUCCAUAUUGAGUGACCCUUUCAUAACAUGAGGAUCACCCAUGUCGGUGGGAGAAGGGCCGUACGGCG [salish99_ExNG02_R04_015] (Eterna round: R96, puzzle: Exclusion NG 2) | high bracket
UGAGUGCUGCGAGGAUAUACAUGAGGAUCACCCAUGUUUUCGUGUGAGGCAAAGCCUCACACGAUGUAGAAGGCGCAGUACUCU [Mat - Exclusion NG 2 - Mod of JL - D35] (Eterna round: R96, puzzle: Exclusion NG 2) | low bracket
GUUGUUUAUGUAGGAUAUGCCUGGCGUGCCUUUGCAGAAGGACAUGAGGAUCACCCAUGUAUUGCGGUCUGCGUUCAGAUCGCA [salish99_ExNG1_r4_039] (Eterna round: R96, puzzle: Exclusion NG 1) | middle bracket
CUAGGGCACAUUUAAACGCCCUAACAUGAGGAUCACCCAUGUCAGGAUAUGUAGGCAAAGACCCUACAGAAGGGACAUGUCCUA [Recebe] (Eterna round: R96, puzzle: Exclusion NG 3) | high bracket

====

- Tested on: MS2 coat protein
- measurement_notes: apparent KD of MS2 coat protein; designed switch direction (-1 OFF switch, 1 ON switch): 1; higher = weaker reporter binding
- stated_conditions: input ligand: microRNA oligo, concentration not stated

residue_sequence | assay_system | apparent KD of MS2 coat protein [nM]
UACAAUCUAUCUGAGGAUAUCAUGCAUUACACAUGAGGAUCACCCAUGUGCAGGAAAACUGCAUAUGAGAAGGCAGAUAGAUUGU [salish99_ss2_r3_066] (Eterna round: R96, puzzle: Same State 2) | MS2 coat protein | 328
GUGGAGGGUUGAGGAUAUUGAAUACAUAUGUUUAACAUGAGGAUCACCCAUGUGGGUUGCGGUUUCGAGAAGGUAGGUUGCUGG [salish99_SSNG2_r04_040] (Eterna round: R96, puzzle: Same State NG 2) | MS2 coat protein | 72
UGUUGUAUUACAGGAUAUCUAUGAUUUUUAUAUAGAGAAGGGUAUUCACAUGAGGAUCACCCAUGUAUAUACGAGGAAGUUGUG [JMF's solution 68] (Eterna round: R96, puzzle: Same State NG 1) | MS2 coat protein | 39.6
GGUCGGACUCACAUGAGGAUCACCCAUGUUGCGGAAACGCGAUAGGAUAUCUGUCCGAAAAGGUCAGAGAAGGGUCAACCGACC [Fiskers NG3ss - 64] (Eterna round: R96, puzzle: Same State NG 3) | MS2 coat protein | 486
